Where do the numbers come from? From ChEMBL document CHEMBL3988442.

Tested on: Wolbachia pipientis
TEST_DESCRIPTION: Anti-Wolbachia Cell-Based Screen
Type: functional
Design: scale not given: in the data most compounds retested in dose-response had high values
REPORTED_CONDITIONS: 5 µM
Screen size: about 48,000 compounds; about 13,000 (27%) showed an effect of 50% or more. Some of the results follow.
Decide using Percent Effect alone. Strictly below 30%: T. Equal to or above 30%: F.

- COMPOUND: "Cc1cnc(CCNC(Cc2ccncc2)C(F)(F)F)s1 (configuration not stated)"
  CLASS_ASSIGNMENT: "T"
- COMPOUND: "CC(C)N1CCC(NCc2cccnc2N(C)C)CC1"
  CLASS_ASSIGNMENT: "T"
- COMPOUND: "O=C(NC1CC(=O)N(C2CC2)C1)c1cccs1 (configuration not stated)"
  CLASS_ASSIGNMENT: "T"
- COMPOUND: "CCC(O)CN1CCN(C(=O)CCSC)CC1 (configuration not stated)"
  CLASS_ASSIGNMENT: "T"
- COMPOUND: "Cc1nc(CNCC2CN(C3CC3)CCO2)cs1 (configuration not stated)"
  CLASS_ASSIGNMENT: "F"
- COMPOUND: "O=C(NCC1(O)CCc2ccccc2C1)c1cccs1 (configuration not stated)"
  CLASS_ASSIGNMENT: "T"
- COMPOUND: "CC(C)(C)OC(=O)N1CCC(NC2CCS(=O)(=O)C2)CC1 (configuration not stated)"
  CLASS_ASSIGNMENT: "T"
- COMPOUND: "CC(=O)N(Cc1noc(C)n1)C1CCN(Cc2ccccc2C#N)C1 (configuration not stated)"
  CLASS_ASSIGNMENT: "T"
- COMPOUND: "Cc1cc(F)ccc1-c1ccccc1CC1CNCCNC1=O.Cl (configuration not stated)"
  CLASS_ASSIGNMENT: "F"
- COMPOUND: "Cc1nc(CN2CCCC(N(C)c3ccc(C#N)cn3)C2)no1 (configuration not stated)"
  CLASS_ASSIGNMENT: "T"
- COMPOUND: "CN(C)CCn1c2c(ccc1=O)CCN(C(=O)c1cccs1)CC2.O=C(O)C(F)(F)F"
  CLASS_ASSIGNMENT: "F"
- COMPOUND: "CCc1ncc(CN(C)C2CCN(C(C)C)CC2)cn1.O=C(O)CC(O)(CC(=O)O)C(=O)O"
  CLASS_ASSIGNMENT: "F"
- COMPOUND: "CC(=O)N(Cc1noc(C)n1)C1CCN(Cc2cccc(C#N)c2)C1 (configuration not stated)"
  CLASS_ASSIGNMENT: "F"
- COMPOUND: "CSCC(=O)N1C[C@@H](C)[C@](O)(C(C)C)C1"
  CLASS_ASSIGNMENT: "F"
- COMPOUND: "O=c1[nH][nH]cc1-c1ccnc(NCCc2cccc(O)c2)n1"
  CLASS_ASSIGNMENT: "F"
- COMPOUND: "CC(=O)N(Cc1noc(C)n1)C1CCN(Cc2c(C)noc2C)C1 (configuration not stated)"
  CLASS_ASSIGNMENT: "F"

----------
Parameter Percent Effect: see the listing below.
System: Wolbachia pipientis
TEST_DESCRIPTION: Anti-Wolbachia Cell-Based Screen
Assay type: functional
Set-up: scale not given: in the data most compounds retested in dose-response had high values
REPORTED_CONDITIONS: 5 µM
Screen size: about 48,000 compounds; about 13,000 (27%) showed an effect of 50% or more. This is one part of the list.
REPORTED_PROPERTY: Percent Effect (%)

- COMPOUND: "CC(C)CN1C[C@H](COCc2ccccc2)Oc2ncccc2C1=O"
  REPORTED_PROPERTY: "Percent Effect"
  UNITS_TEXT: "%"
  MEASURED: 89.35
- COMPOUND: "COc1ncccc1C1CC(=O)NCc2nc3sccn3c21 (stereo not given)"
  REPORTED_PROPERTY: "Percent Effect"
  UNITS_TEXT: "%"
  MEASURED: -19.07
- COMPOUND: "CCCS(=O)(=O)N1CCC2(CCCC(=O)N2C)CC1"
  REPORTED_PROPERTY: "Percent Effect"
  UNITS_TEXT: "%"
  MEASURED: -27.87
- COMPOUND: "COc1coc(CN2CCCC(CCc3ccc(F)cc3)C2)cc1=O (stereo not given)"
  REPORTED_PROPERTY: "Percent Effect"
  UNITS_TEXT: "%"
  MEASURED: 20.93
- COMPOUND: "CCOc1ncccc1CN1Cc2ncccc2C1=O"
  REPORTED_PROPERTY: "Percent Effect"
  UNITS_TEXT: "%"
  MEASURED: 24.49
